Ok so here's the combined literature set: Ki for Translocator protein (Rattus norvegicus, UniProt P16257).

{"columns": ["molecule", "measurement target", "value units", "Ki"],
 "data": [
  ["CCCN(CCC)C(=O)C(=O)c1c(-c2ccc(C(=O)OC)cc2)[nH]c2ccccc12", "Translocator protein (Rattus norvegicus, UniProt P16257)", "nM", 3.1],
  ["CCN(Cc1ccccc1)C(=O)C(=O)c1c(-c2ccc3ccccc3c2)[nH]c2ccccc12", "Translocator protein (Rattus norvegicus, UniProt P16257)", "nM", 0.51],
  ["CCN(CC)C(=O)c1cc(-c2ccccc2I)c2ccccc2n1", "Translocator protein (Rattus norvegicus, UniProt P16257)", "nM", 5.01],
  ["CCN(Cc1ccc(C)cc1)C(=O)c1nc(-c2ccccc2Cl)c2ccccc2n1", "Translocator protein (Rattus norvegicus, UniProt P16257)", "nM", 0.489],
  ["CCN(C(=O)Cn1c(=O)oc2ccc(-c3cccnc3)cc21)c1ccccc1", "Translocator protein (Rattus norvegicus, UniProt P16257)", "nM", 4.4],
  ["CN(Cc1ccccc1)C(=O)C1CCCc2c1c1ccccc1n2CCF (racemic)", "Translocator protein (Rattus norvegicus, UniProt P16257)", "nM", 1.3],
  ["CCN(Cc1ccccc1)C(=O)C(=O)c1c(-c2ccc(F)cc2)[nH]c2ccc(Cl)cc12", "Translocator protein (Rattus norvegicus, UniProt P16257)", "nM", 4.01],
  ["CCN(CC)C(=O)Cc1c(-c2ccc(C#CCF)cc2)nn2c(C)cc(C)nc12", "Translocator protein (Rattus norvegicus, UniProt P16257)", "nM", 0.54],
  ["CCN(CC)C(=O)C1CCCc2c1c1cc(OC)c(F)cc1n2CCF (racemic)", "Translocator protein (Rattus norvegicus, UniProt P16257)", "nM", 1.5],
  ["CN(Cc1ccccc1)C(=O)C1CCCc2c1c1cc(F)ccc1n2CCF (racemic)", "Translocator protein (Rattus norvegicus, UniProt P16257)", "nM", 1.45],
  ["CCCCN(CCCC)C(=O)c1nc(-c2ccccc2)no1", "Translocator protein (Rattus norvegicus, UniProt P16257)", "nM", 772],
  ["CCCCCCN(CCCCCC)C(=O)C(=O)c1c(-c2ccccc2)[nH]c2ccc(Cl)cc12", "Translocator protein (Rattus norvegicus, UniProt P16257)", "nM", 58.4],
  ["CCCCCCN(CCCCCC)C(=O)Cc1coc(-c2ccc(C)cc2)n1", "Translocator protein (Rattus norvegicus, UniProt P16257)", "nM", 877],
  ["CCN(CC)C(=O)Cc1c(-c2ccc(C#CCCCF)cc2)nn2c(C)cc(C)nc12", "Translocator protein (Rattus norvegicus, UniProt P16257)", "nM", 0.35],
  ["COc1ccc(OCI)c(CN(C(C)=O)c2cc(F)ccc2Oc2ccccc2)c1", "Translocator protein (Rattus norvegicus, UniProt P16257)", "nM", 4.8],
  ["CCCN(CCC)C(=O)Cc1c(-c2ccc(Cl)cc2)nc2c(NC(=O)CN(Cc3ccccn3)Cc3ccccn3)cccn12", "Translocator protein (Rattus norvegicus, UniProt P16257)", "nM", 239],
  ["CCCCN(CC)C(=O)C(=O)c1c(-c2ccc(Cl)cc2)[nH]c2ccccc12", "Translocator protein (Rattus norvegicus, UniProt P16257)", "nM", 3.6],
  ["CCCCCN(C)C(=O)C(=O)c1c(-c2ccccc2)[nH]c2ccccc12", "Translocator protein (Rattus norvegicus, UniProt P16257)", "nM", 12.1],
  ["CCCCCCN(CCCCCC)C(=O)c1nc(-c2ccc(Cl)cc2)c2cc(Cl)ccc2n1", "Translocator protein (Rattus norvegicus, UniProt P16257)", "nM", 4.31],
  ["CCN(Cc1ccccc1)C(=O)C(=O)c1c(-c2ccccc2)[nH]c2ccc(OC)cc12", "Translocator protein (Rattus norvegicus, UniProt P16257)", "nM", 69.5]
]}
